System: Mycolicibacterium smegmatis
assay_protocol: Antimicrobial activity against Mycobacterium smegmatis by broth microdilution assay
Assay type: functional
Just a reminder that ties go to n: only MIC strictly below 30 µM counts as y.

Here's what some known entries look like.
> print(dat)
                                   compound  group.label
1  [C-]#[N+][C@H]1[C@@](C)(C=C)[C@H](Cl)C[C@@H]2C(C)(C)c3cccc4[nH]c(C(C)(C)C=C)c(c34)[C@]21O [AMBIGUINE B ISONITRILE]            y
2  [C-]#[N+][C@]12[C@H]3O[C@H]3C(C)(C)c3[nH]c4cccc5c4c3[C@]1(O)[C@H](C[C@@H](Cl)[C@]2(C)C=C)C5(C)C [AMBIGUINE E ISONITRILE]            y

INPUT: Strictly below 30 µM in MIC? [C-]#[N+][C@@H]1[C@@H]2c3c(C(C)(C)C=C)[nH]c4cccc(c34)C(C)(C)[C@H]2C[C@@H](Cl)[C@]1(C)C=C [AMBIGUINE A ISONITRILE]
OUTPUT: y

INPUT: Okay, and [C-]#[N+][C@]12C[C@@H](O)C(C)(C)c3[nH]c4cccc5c4c3[C@]1(O)[C@H](CC[C@]2(C)C=C)C5(C)C [AMBIGUINE N ISONITRILE] ?
OUTPUT: n

INPUT: Next compound up: [C-]#[N+][C@@H]1[C@]2(O)c3c(C(C)(C)C=C)[nH]c4cccc(c34)C(C)(C)[C@H]2CC[C@]1(C)C=C [AMBIGUINE C ISONITRILE]
OUTPUT: n

Source of measurements: ChEMBL document CHEMBL1152337
